subject.of.test: T1, hErbB3.mFc (soluble dimeric human ErbB3 extracellular domain fused to mouse Fc) (human)
T1 construct: called dimeric
T1 chain: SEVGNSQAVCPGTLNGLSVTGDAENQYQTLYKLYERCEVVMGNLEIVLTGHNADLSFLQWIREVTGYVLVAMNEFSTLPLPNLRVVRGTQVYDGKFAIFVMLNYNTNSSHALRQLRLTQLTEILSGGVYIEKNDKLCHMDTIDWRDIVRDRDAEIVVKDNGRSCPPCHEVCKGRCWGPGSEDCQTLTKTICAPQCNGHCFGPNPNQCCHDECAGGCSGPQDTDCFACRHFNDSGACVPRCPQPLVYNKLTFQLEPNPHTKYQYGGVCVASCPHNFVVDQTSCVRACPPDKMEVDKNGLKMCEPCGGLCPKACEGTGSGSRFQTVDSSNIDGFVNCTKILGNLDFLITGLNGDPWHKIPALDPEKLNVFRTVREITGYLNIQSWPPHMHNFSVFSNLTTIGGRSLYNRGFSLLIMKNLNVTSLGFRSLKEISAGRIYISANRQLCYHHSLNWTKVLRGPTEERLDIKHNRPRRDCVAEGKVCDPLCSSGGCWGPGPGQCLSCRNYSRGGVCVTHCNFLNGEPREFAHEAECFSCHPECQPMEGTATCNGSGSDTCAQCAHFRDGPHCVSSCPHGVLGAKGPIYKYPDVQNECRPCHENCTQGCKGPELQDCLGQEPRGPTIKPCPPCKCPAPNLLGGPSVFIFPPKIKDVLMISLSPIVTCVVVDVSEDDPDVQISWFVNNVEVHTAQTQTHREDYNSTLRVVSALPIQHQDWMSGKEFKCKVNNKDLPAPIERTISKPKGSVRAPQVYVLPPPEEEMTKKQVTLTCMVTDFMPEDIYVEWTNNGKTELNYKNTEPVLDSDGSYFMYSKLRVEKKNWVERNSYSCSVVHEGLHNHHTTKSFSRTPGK
protocol.details: SPR (Biacore), 25 C, mAb capture format
Procedure: (Tables 2-4). Measurements were conducted on a Biacore 2000 or T100 instrument. […] Kinetic association (kₐ) and dissociation (kd) rate constants were determined by processing and fitting the data to a 1:1 binding model using Scrubber 2.0 curve fitting software.
experimental.readout: kon (M⁻¹ s⁻¹)
Report as a plain number; the unit M⁻¹ s⁻¹ is understood.

binder	experimental.readout	experimental.result
H4H2140P (antibody, V domains shown, Fully human, human IgG4 Fc (H4H prefix)) VH: EVQLVESGGGLVQPGGSLRLSCAASGFSVSYYDMHWVRQVTGKGLEWVSAIGPAGDTYYPGSVKGRFTISREDATNSLYLQIHSLGAGDTAVYYCAREGAIAARPDDYYGMDVWGQGTTVTVSS VL: DIQLTQSPSFLSASVGDRVTITCWASQDISSYLAWYQQKPGKAPKLLIYAASTLQSGVPSRFSGSGSGTEFTLTISSLQPEDFATYYCQQLNSYPLTFGGGTKVEIKR	kon	2.51e+06
H4H2094P (antibody, V domains shown, Fully human, human IgG4 Fc (H4H prefix)) VH: EVQLVESGGGLVQPGGSLRLSCAASGFTFSSYDMHWVRQATGKGLEWVSAIGPAGDTYYPVSAMGRFTISRDDAKNSLYLQMNSLRAGDTAVYYCAREGVTIRPDDYFGLDVWGQGTTVTVSA VL: DIQLTQSPSFLSASVGDRVTITCWASQGISDYLAWYQKKPGKAPQLLIYAATTLQSGVPSRFSGSGSGTEFTLTISSLQPEDFATYYCQQLNTYPLTFGGGTKVEIKR	kon	3.03e+06
H4H2148P (antibody, V domains shown, Fully human, human IgG4 Fc (H4H prefix)) VH: EVQLVESGGGLVHPGRSLRLSCAASGFTFDDYAMHWVRQSPGKGLEWVSGISWNSVIKHSTDSVRGRFTISRDNAKNSLYLQMNSLKPEDTAFYYCAKDEDDWNYLDYWGQGTLVTVSS VL: DIQMTQSPSSVSASVGDRVTITCRASQDINSWLAWYQQKPGKAPKLLIYTSSNLQSGVPSRFSGSGSGTDFTLTISSLQPEDFATYYCQQSDSFPFTFGPGTKVDIKR	kon	5.91e+06
H4H2098P (antibody, V domains shown, Fully human, human IgG4 Fc (H4H prefix)) VH: QVQLVESGGGVVQPGRSLRLSCAASGFTFSSFGMHWVRQAPGKGLEWVAVIWYVEINKYHADSVKGRFTISRDDSKNTVYLQMNSLRAEDTAVYYCARDWNDGDYGMDVWGQGTTVTVSS VL: DIQLTQSPSFLSASVGDRVTITCWASQGISSFLAWYQQKAGKAPRLLIYAASTLQTGVPSRFSGSGSGTEFTLTISSLQPGDFATYHCQQLNSYPYTFGQGTKLEIKR	kon	2.21e+06

We now examine a further binder.
Entry under review: H4H2290P (antibody, V domains shown, Fully human, human IgG4 Fc (H4H prefix)) VH: EVQLLESGGGLVQPGGSLRLSCVASGFTFSSFAMSWVRQAPGKGLEWVSVISGSGGSTNHADSVRGRFTISRDNSLNTVYLQMHSLRAEDTALYYCVKAETSSSYFYYGMDVWGQGTTVTVSS VL: DIQLTQSPSFLSASVGDRVTITCWASQDISSYLAWYQQKPGKVPNLLIYGASSLQPGVPSRFSGSGSGTEFTLTISSLQPEDFATYYCQQLNNYPTFGGGTKLEIKR . Reported kon?
800000
